Please go through the items and note down their NEUTRAL RED DYE UPTAKE.
Test system: 2.2.15 cells
Test summary: toxicity analysis, neutral red dye uptake in 2.2.15 cells
Settings: 30 μg/ml; triplicate, ± standard deviation
Write the number in % OF CONTROL without appending the unit.

Reported NEUTRAL RED DYE UPTAKE, molecule Cl.Cl.Cn1cc(NC(=O)c2cc(NC(=O)Nc3cc(C(=O)Nc4cc(C(=O)NCCC(=N)N)n(C)c4)n(C)c3)cn2C)cc1C(=O)NCCC(=N)N : ____
99

Entry Cl.Cl.Cn1cc(NC(=O)c2cc(NC(=O)CCCCC(=O)Nc3cc(C(=O)Nc4cc(C(=O)NCCC(=N)N)n(C)c4)n(C)c3)cn2C)cc1C(=O)NCCC(=N)N please
102

Entry Cl.Cl.Cn1cc(NC(=O)c2cc(NC(=O)/C=C\C(=O)Nc3cc(C(=O)Nc4cc(C(=O)NCCC(=N)N)n(C)c4)n(C)c3)cn2C)cc1C(=O)NCCC(=N)N [Compound 22b] please
98

Entry Nc1ccn([C@H]2CC[C@@H](CO)O2)c(=O)n1 [DDC, 2,3'-dideoxycytosine, reference compound] please
100

Entry Cl.Cl.Cn1cc(NC(=O)c2cc(NC(=O)CCC(=O)Nc3cc(C(=O)Nc4cc(C(=O)NCCC(=N)N)n(C)c4)n(C)c3)cn2C)cc1C(=O)NCCC(=N)N please
100

* * *

Please go through the items and note down their pEC50.
System: HIV-1
Settings: Table XI
The scale used: pEC50 is minus the common logarithm of the concentration in molar units.

Reported pEC50, compound Cl.Cl.Cn1cc(NC(=O)c2cc(NC(=O)Nc3cc(C(=O)Nc4cc(C(=O)NCCC(=N)N)n(C)c4)n(C)c3)cn2C)cc1C(=O)NCCC(=N)N [Compound 3, dihydrochloride] : ____
4.92

Entry Cl.Cl.Cn1cc(NC(=O)c2cc(NC(=O)[C@@H]3C[C@H]3C(=O)Nc3cc(C(=O)Nc4cc(C(=O)NCCC(=N)N)n(C)c4)n(C)c3)cn2C)cc1C(=O)NCCC(=N)N [Compound 23b, dihydrochloride] please
5.46

Entry Cl.Cl.Cn1cc(NC(=O)c2cc(NC(=O)/C=C/C(=O)Nc3cc(C(=O)Nc4cc(C(=O)NCCC(=N)N)n(C)c4)n(C)c3)cn2C)cc1C(=O)NCCC(=N)N [Compound 21b, dihydrochloride] please
5.86

* * *

Test system: 2.2.15 cells
Test summary: toxicity analysis, neutral red dye uptake in 2.2.15 cells
Settings: 300 μg/ml; triplicate, ± standard deviation
Please go through the items and note down their NEUTRAL RED DYE UPTAKE.
Please state the number and follow it with the unit.

Reported NEUTRAL RED DYE UPTAKE, compound Cl.Cl.Cn1cc(NC(=O)c2cc(NC(=O)/C=C\C(=O)Nc3cc(C(=O)Nc4cc(C(=O)NCCC(=N)N)n(C)c4)n(C)c3)cn2C)cc1C(=O)NCCC(=N)N [Compound 22b] : ____
85 ± 2 % OF CONTROL

Entry Nc1ccn([C@H]2CC[C@@H](CO)O2)c(=O)n1 [DDC, 2,3'-dideoxycytosine, reference compound] please
17 ± 2 % OF CONTROL

Entry Cl.Cl.Cn1cc(NC(=O)c2cc(NC(=O)CCCCC(=O)Nc3cc(C(=O)Nc4cc(C(=O)NCCC(=N)N)n(C)c4)n(C)c3)cn2C)cc1C(=O)NCCC(=N)N please
98 ± 2 % OF CONTROL

Entry Cl.Cl.Cn1cc(NC(=O)c2cc(NC(=O)CC(=O)Nc3cc(C(=O)Nc4cc(C(=O)NCCC(N)=O)n(C)c4)n(C)c3)cn2C)cc1C(=O)NCCC(N)=O please
99 ± 1 % OF CONTROL

Entry Cl.Cl.Cn1cc(NC(=O)c2cc(NC(=O)Nc3cc(C(=O)Nc4cc(C(=O)NCCC(=N)N)n(C)c4)n(C)c3)cn2C)cc1C(=O)NCCC(=N)N please
82 ± 2 % OF CONTROL
